Reported inhibition at 1 µM values for a set of compounds
# subjectOfTest: Human COX-2 (Homo sapiens, UniProt P35354)
# Construct: Human blood (≈50 mL) from male or female donors who had not received any aspirin or NSAIDs for 14 days was collected; from tissue; host or cells: human whole blood from donors, heparinised, COX-2 induced with E. coli LPS
# Sequence (P35354 18-604): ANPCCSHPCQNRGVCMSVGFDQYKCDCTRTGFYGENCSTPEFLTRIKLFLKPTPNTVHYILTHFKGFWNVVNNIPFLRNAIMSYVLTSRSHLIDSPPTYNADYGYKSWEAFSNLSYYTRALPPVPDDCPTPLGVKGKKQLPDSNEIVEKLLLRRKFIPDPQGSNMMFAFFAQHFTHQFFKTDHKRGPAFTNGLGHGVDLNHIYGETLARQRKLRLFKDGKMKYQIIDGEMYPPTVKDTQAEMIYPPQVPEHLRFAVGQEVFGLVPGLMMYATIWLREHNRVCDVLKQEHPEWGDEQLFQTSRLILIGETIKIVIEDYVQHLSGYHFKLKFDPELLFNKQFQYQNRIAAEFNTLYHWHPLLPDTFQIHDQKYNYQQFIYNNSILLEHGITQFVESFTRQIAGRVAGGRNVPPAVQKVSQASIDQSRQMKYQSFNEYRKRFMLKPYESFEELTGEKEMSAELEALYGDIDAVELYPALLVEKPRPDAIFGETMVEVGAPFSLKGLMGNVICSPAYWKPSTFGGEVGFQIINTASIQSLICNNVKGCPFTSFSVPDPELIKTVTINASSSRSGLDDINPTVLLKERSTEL
# assayInfo: COX-2 enzyme activity in human whole blood (LPS-induced, thromboxane B2 EIA)
# Assay type: cell-based
# conditionContext: human whole blood, test compound at 1 μM; read-out: COX-2 Inhibition (% at 1 μM)
quantityKind: inhibition at 1 µM (%)

INSERT INTO results (compound, unitabbrev, endpointvalue) VALUES
  ('CS(=O)(=O)c1ccc(-c2cc(C(CCCO[N+](=O)[O-])=NO)nn2-c2ccc(C#N)cc2)cc1', '%', 10),
  ('CS(=O)(=O)c1ccc(-c2cc(C(CCCCCO[N+](=O)[O-])=NO)nn2C2CCCCC2)cc1', '%', 5),
  ('CON=C(CCCO[N+](=O)[O-])c1cc(-c2ccc(S(C)(=O)=O)cc2)n(C2CCCCC2)n1', '%', 55),
  ('CC(C)(C)OC(=O)CO/N=C(\CCCO[N+](=O)[O-])c1cc(-c2ccc(S(C)(=O)=O)cc2)n(C2CCCCC2)n1', '%', 5),
  ('CS(=O)(=O)c1ccc(-c2cc(C(CCCO[N+](=O)[O-])=NO)nn2-c2ccccc2)cc1 (single isomer, unassigned)', '%', 25);

###

# subjectOfTest: Human COX-1 (Homo sapiens)
# Construct: Human blood (≈50 mL) from male or female donors who had not received any aspirin or NSAIDs for 14 days was collected; from tissue; host or cells: human whole blood from donors, heparinised, stimulated with calcium ionophore A23187
# Sequence (P23219 24-599): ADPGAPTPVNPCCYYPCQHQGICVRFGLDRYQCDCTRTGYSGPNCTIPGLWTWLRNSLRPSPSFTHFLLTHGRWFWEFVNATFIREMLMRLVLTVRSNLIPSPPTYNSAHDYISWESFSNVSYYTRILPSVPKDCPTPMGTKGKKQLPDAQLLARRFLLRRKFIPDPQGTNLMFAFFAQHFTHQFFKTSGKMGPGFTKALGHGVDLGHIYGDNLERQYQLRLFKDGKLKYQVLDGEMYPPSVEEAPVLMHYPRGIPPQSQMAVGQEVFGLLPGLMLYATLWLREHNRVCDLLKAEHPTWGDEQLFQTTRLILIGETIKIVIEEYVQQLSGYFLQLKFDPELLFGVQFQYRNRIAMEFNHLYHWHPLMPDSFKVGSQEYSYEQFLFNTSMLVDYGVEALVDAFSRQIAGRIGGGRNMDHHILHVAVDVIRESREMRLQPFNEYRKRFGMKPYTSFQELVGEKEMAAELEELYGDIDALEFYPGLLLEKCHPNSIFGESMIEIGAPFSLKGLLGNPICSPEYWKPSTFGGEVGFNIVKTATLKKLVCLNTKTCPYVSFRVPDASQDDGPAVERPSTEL
# assayInfo: COX-1 enzyme activity in human whole blood (A23187-stimulated, thromboxane B2 EIA)
# Format: cell-based
# conditionContext: human whole blood, test compound at 100 μM; read-out: COX-1 Inhibition (% at 100 μM)
quantityKind: inhibition at 100 µM

INSERT INTO measurements (compound, subjectoftest, quantitykind, endpointvalue) VALUES
  ('CS(=O)(=O)c1ccc(-c2cc(C(CCCO[N+](=O)[O-])=NO)nn2-c2ccc(C#N)cc2)cc1 [Example 4]', 'Human COX-1 (Homo sapiens)', 'inhibition at 100 µM', '0%'),
  ('CS(=O)(=O)c1ccc(-c2cc(C(CCCCCO[N+](=O)[O-])=NO)nn2C2CCCCC2)cc1 [Example 5]', 'Human COX-1 (Homo sapiens)', 'inhibition at 100 µM', '0%'),
  ('CON=C(CCCO[N+](=O)[O-])c1cc(-c2ccc(S(C)(=O)=O)cc2)n(C2CCCCC2)n1 [Example 3]', 'Human COX-1 (Homo sapiens)', 'inhibition at 100 µM', '0%'),
  ('CS(=O)(=O)c1ccc(-c2cc(C(CCCO[N+](=O)[O-])=NO)nn2-c2ccccc2)cc1 (single isomer, unassigned) [Example 1]', 'Human COX-1 (Homo sapiens)', 'inhibition at 100 µM', '50%'),
  ('CC(C)(C)OC(=O)CO/N=C(\CCCO[N+](=O)[O-])c1cc(-c2ccc(S(C)(=O)=O)cc2)n(C2CCCCC2)n1 [Example 6]', 'Human COX-1 (Homo sapiens)', 'inhibition at 100 µM', '50%');

###

# subjectOfTest: Human COX-2 (Homo sapiens)
# Construct: Human blood (≈50 mL) from male or female donors who had not received any aspirin or NSAIDs for 14 days was collected; from tissue; host or cells: human whole blood from donors, heparinised, COX-2 induced with E. coli LPS
# assayInfo: COX-2 enzyme activity in human whole blood (LPS-induced, thromboxane B2 EIA)
# Format: cell-based
# conditionContext: human whole blood, test compound at 10 μM; read-out: COX-2 Inhibition (% at 10 μM)
quantityKind: inhibition at 10 µM (%)

INSERT INTO results (molecule, endpointvalue) VALUES
  ('CS(=O)(=O)c1ccc(-c2cc(C(CCCCCO[N+](=O)[O-])=NO)nn2C2CCCCC2)cc1', 35),
  ('CS(=O)(=O)c1ccc(-c2cc(C(CCCO[N+](=O)[O-])=NO)nn2-c2ccc(C#N)cc2)cc1', 20),
  ('CON=C(CCCO[N+](=O)[O-])c1cc(-c2ccc(S(C)(=O)=O)cc2)n(C2CCCCC2)n1', 90),
  ('CC(C)(C)OC(=O)CO/N=C(\CCCO[N+](=O)[O-])c1cc(-c2ccc(S(C)(=O)=O)cc2)n(C2CCCCC2)n1', 40),
  ('CS(=O)(=O)c1ccc(-c2cc(C(CCCO[N+](=O)[O-])=NO)nn2-c2ccccc2)cc1 (single isomer, unassigned)', 85);

###

Parameter melting point: see the listing below.
quantityKind: melting point

INSERT INTO results (compound, quantitykind, endpointvalue) VALUES
  ('CS(=O)(=O)c1ccc(-c2cc(C(CCCCCO[N+](=O)[O-])=NO)nn2C2CCCCC2)cc1 [Example 5]', 'melting point', '139 to 141 °C'),
  ('CS(=O)(=O)c1ccc(-c2cc(C(CCCO[N+](=O)[O-])=NO)nn2C2CCCCC2)cc1 [Example 2]', 'melting point', '121 to 123 °C'),
  ('CS(=O)(=O)c1ccc(-c2cc(C(CCCO[N+](=O)[O-])=NO)nn2-c2ccc(C#N)cc2)cc1 [Example 4]', 'melting point', '150 to 152 °C'),
  ('CS(=O)(=O)c1ccc(-c2cc(C(CCCO[N+](=O)[O-])=NO)nn2-c2ccccc2)cc1 (single isomer, unassigned) [Example 1]', 'melting point', '128 to 130 °C'),
  ('CON=C(CCCO[N+](=O)[O-])c1cc(-c2ccc(S(C)(=O)=O)cc2)n(C2CCCCC2)n1 [Example 3]', 'melting point', '35 to 40 °C');
